Test system: HOP-92 NSCLC
assay protocol: NCI-60 one-dose screen, 48 h
run conditions: 10 µM
About 83,000 compounds went through this panel and 20% of them were active in at least one assay; those are over-represented in the sample as a whole. Calls of active or inactive are those of the source. The calls were made as follows: active = growth percent below 10; inactive = the rest.
Return exactly one item of active, inactive

| compound | label |
| --- | --- |
| O=C(/C=C/Nc1ccc(F)cc1F)c1ccc2c(c1)Nc1ccccc1S2 | inactive |
| CC(=O)NCC1=C(C)C=C2C(=O)[C@](C)(O)C3(CC3)C(C)=C21 | active |
| O=C(NO)c1ccc(Cn2ccc3c(Nc4ccccc4)ncnc32)cc1 | active |

Hello, I am checking results. What call was entered for COc1ccccc1C(=O)NNC(=O)CSc1nc2c(c(=O)[nH]1)CCCC2 ? inactive

Which outcome did this test record for the compound N[C@@H](CSSC[C@H](N)C(=O)Nc1ccc(OCC2CCCC2)cc1)C(=O)Nc1ccc(OCC2CCCC2)cc1 ? active

Hi, sorry to bother you, what did the test record for CCOC(=O)C1=C(N)N(c2ccc(C)cc2)C2=C(C(=O)CC(C)(C)C2)C1c1ccccc1OC (centres undefined) ? inactive

###

Tested on: SF-539 CNS
assay protocol: NCI-60 one-dose screen, 48 h (100 = growth as untreated, 0 = no growth, -100 = all killed)
run conditions: 10 µM
The panel holds about 83,000 compounds, 20% with a hit somewhere; the sample as a whole holds those more often.
measurement name: growth (%)
Supply the numeric figure in %, leaving out any unit text.

A selection of reference data follows.
| molecule | experimental value |
| --- | --- |
| COc1cc(/C=N/NC(=O)c2ccc3nc(-c4ccc(Cl)cc4)[nH]c3c2)cc(OC)c1OC | -95.7 |
| CC1(C)CC[C@]2(C(=O)N3CCOCC3)CC[C@]3(C)C(=CC[C@@H]4[C@@]5(C)CC[C@H](NCO)C(C)(C)[C@@H]5CC[C@]43C)[C@H]2C1 | -96.8 |
| CC(=O)Nc1ccc(-n2cnc3cc(-c4ccc(O)cc4)ccc32)cc1F | -5.18 |

Record request: growth value, item CC1(C)CC[C@]23CC[C@]4(C)[C@H](CC[C@@H]5[C@@]6(C)CC[C@H](N)C(C)(C)[C@@H]6CC[C@]54C)[C@H]2[C@H]1OC3=O -99.3

Item Clc1cccc(N/N=C/c2c[nH]c3ccccc23)n1 has what recorded growth? 6.26

###

Test system: SW-620 colon
assay protocol: NCI-60 one-dose screen, 48 h (100 = growth as untreated, 0 = no growth, -100 = all killed)
run conditions: 10 µM
This is part of a sample that, as a whole, favours compounds with a hit. Of some 83,000 tested, about 20% had one in any assay. Active and inactive are the calls of the source. How the source made its calls: active means growth percent below 10; inactive means the rest.
measurement name: growth

// below: answered molecules
| molecule | target under test | growth |
| --- | --- | --- |
| COc1cc(/C=C/C(=O)c2cc(OC)c(OC)c(OC)c2)ccc1Oc1nc(Nc2ccc(F)cc2)nc(N(C)C)n1 | SW-620 colon | 1.14% (active) |
| O=C1CCC(N2Cc3c(C#CCCCNC(=O)c4ccc(NC(=O)[C@@H]5NC6(CCCCC6)[C@@]6(C(=O)Nc7cc(Cl)ccc76)[C@H]5c5cccc(Cl)c5F)cc4)cccc3C2=O)C(=O)N1 (some centres undefined) | SW-620 colon | 84.7% (inactive) |
| CNCc1cccc2c1OCCCCCC[C@@](C)(O)CC1(CC1)S(=O)(=O)c1ccc(cc1)-c1cnc(N)c(n1)C(=O)N2 | SW-620 colon | -84.6% (active) |

Report growth for CC1(C)[C@@H](NCO)CC[C@]2(C)[C@H]3C(=O)C=C4[C@@H]5C[C@](C)(CO)CC[C@]5(C)CC[C@@]4(C)[C@]3(C)CC[C@@H]12 please. 35.2% (inactive)

Value lookup for growth; key = O=C(c1ccc(O)cc1)C1[C@H](c2ccccc2Br)[C@@H](c2ccccc2)NC12C(=O)Nc1ccc(Br)cc12 (some centres undefined) 50.9% (inactive)

The reported numbers originate from PubChem BioAssay (NCI).
